# assay: clinical
# condition-set: human, in vivo
measured-parameter: concentration at 0.75 h (ng/mL)
Note: unit ng/mL is implicit; provide only the numeric part.

Incoming: Would you mind telling me what concentration at 0.75 h value was observed for CC[C@H](C)C(=O)O[C@H]1C[C@H](O)C=C2C=C[C@H](C)[C@H](CC[C@@H](O)C[C@@H](O)CC(=O)O)[C@H]21 [Pravastatin sodium, pravastatin sodium] ?
Outgoing: 113

Continue with the compound presented below.
Incoming: Would you mind telling me what concentration at 0.75 h value was observed for CCCCc1nc(Cl)c(CO)n1Cc1ccc(-c2ccccc2-c2nn[nH]n2)cc1 ?
Outgoing: 176

###

# assay: clinical
# condition-set: human, plasma, oral
measured-parameter: concentration at 2.5 h
Phrase the answer as number then unit, nothing more needed.

Incoming: Would you mind telling me what concentration at 2.5 h value was observed for O=C(O)c1ccccc1O ?
Outgoing: 36.5 ng/mL

###

Here, each record is paired with measured concentration at 6 h data.
# assay: clinical
# condition-set: human, in vivo
Note: unit ng/mL is implicit; provide only the numeric part.

Incoming: Would you mind telling me what concentration at 6 h value was observed for CCCCc1nc(Cl)c(CO)n1Cc1ccc(-c2ccccc2-c2nn[nH]n2)cc1 ?
Outgoing: 38.7

Continue with the compound presented below.
Incoming: Would you mind telling me what concentration at 6 h value was observed for CC[C@H](C)C(=O)O[C@H]1C[C@H](O)C=C2C=C[C@H](C)[C@H](CC[C@@H](O)C[C@@H](O)CC(=O)O)[C@H]21 [Pravastatin sodium, pravastatin sodium] ?
Outgoing: 16.2

###

# assay: clinical
# condition-set: human, in vivo
Here, each record is paired with measured concentration at 0.5 h data.
Note: unit ng/mL is implicit; provide only the numeric part.

Incoming: Would you mind telling me what concentration at 0.5 h value was observed for CCCCc1nc(Cl)c(CO)n1Cc1ccc(-c2ccccc2-c2nn[nH]n2)cc1 [Losartan potassium, losartan potassium] ?
Outgoing: 191

Continue with the compound presented below.
Incoming: Would you mind telling me what concentration at 0.5 h value was observed for CC[C@H](C)C(=O)O[C@H]1C[C@H](O)C=C2C=C[C@H](C)[C@H](CC[C@@H](O)C[C@@H](O)CC(=O)O)[C@H]21 [Pravastatin sodium, pravastatin sodium] ?
Outgoing: 72.6

###

# assay: clinical
# condition-set: human, plasma, oral
measured-parameter: concentration at 12 h (ng/mL)
Note: unit ng/mL is implicit; provide only the numeric part.

Incoming: Would you mind telling me what concentration at 12 h value was observed for O=C(O)c1ccccc1O ?
Outgoing: 4.21

###

# assay: clinical
# condition-set: human, in vivo
measured-parameter: concentration at 24 h (ng/mL)
Note: unit ng/mL is implicit; provide only the numeric part.

Incoming: Would you mind telling me what concentration at 24 h value was observed for CC[C@H](C)C(=O)O[C@H]1C[C@H](O)C=C2C=C[C@H](C)[C@H](CC[C@@H](O)C[C@@H](O)CC(=O)O)[C@H]21 [Pravastatin sodium, pravastatin sodium] ?
Outgoing: 1.27

###

# assay: clinical
# condition-set: human, in vivo
Here, each record is paired with measured concentration at 0 h data.
Note: unit ng/mL is implicit; provide only the numeric part.

Incoming: Would you mind telling me what concentration at 0 h value was observed for CC[C@H](C)C(=O)O[C@H]1C[C@H](O)C=C2C=C[C@H](C)[C@H](CC[C@@H](O)C[C@@H](O)CC(=O)O)[C@H]21 [Pravastatin sodium, pravastatin sodium] ?
Outgoing: 0

Continue with the molecule presented below.
Incoming: Would you mind telling me what concentration at 0 h value was observed for CCCCc1nc(Cl)c(CO)n1Cc1ccc(-c2ccccc2-c2nn[nH]n2)cc1 [Losartan potassium, losartan potassium] ?
Outgoing: 0

Hey, just so you know, these numbers are from patent US20130345182A1.
